# Test system: Balb/c 3T3 fibroblasts
# ASSAY_PROTOCOL: LDH leakage assay (cellular membrane integrity), Balb/c 3T3
# Assay type: cell-based, murine
pIC50: −log10 of the molar value.
ATTRIBUTE_MEASURED: pIC50

{"COMPOUND": "O=[N+]([O-])[O-].[Ag+] [AgNO3, Silver nitrate]", "TARGET_OR_SYSTEM": "Balb/c 3T3 fibroblasts", "ATTRIBUTE_MEASURED": "pIC50", "VALUE": "< 6.00"}
